- TEST_SYSTEM: UniProtKB P35346
- Sequence (P35346 whole entry): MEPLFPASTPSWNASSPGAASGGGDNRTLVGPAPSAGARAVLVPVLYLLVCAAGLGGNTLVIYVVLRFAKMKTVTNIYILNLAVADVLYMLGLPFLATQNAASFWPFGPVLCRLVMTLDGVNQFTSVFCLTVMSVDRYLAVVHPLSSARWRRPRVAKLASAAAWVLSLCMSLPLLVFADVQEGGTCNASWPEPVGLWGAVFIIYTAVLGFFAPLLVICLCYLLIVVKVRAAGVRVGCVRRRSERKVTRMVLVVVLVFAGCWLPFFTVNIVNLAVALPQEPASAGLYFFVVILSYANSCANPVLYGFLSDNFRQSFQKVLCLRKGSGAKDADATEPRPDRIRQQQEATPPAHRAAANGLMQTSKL
- ASSAY: SSTR5 binding assay
- EXPERIMENTAL_SETUP: CHO-K1 membranes expressing cloned human SSTR5
Structures can show the parent of a compound that is named as a salt.
Threshold 9 nM: IC50 strictly smaller gives Fulfilled, otherwise Not fulfilled.

Take a look at these entries with their results.
* CCOc1cc(CN2CCC3(CC2)CN(c2ccc(C(=O)O)c(F)c2)C(=O)O3)cc(OCC)c1-c1ccc(F)cc1 [Example 3-18, TFA salt] | Fulfilled
* CC(C)Oc1ccc(-c2cc(F)c(F)cc2F)c(CN2CCC3(CC2)CN(c2ccc(C(=O)O)cc2)C(=O)O3)c1 [Example 4-16, TFA salt] | Fulfilled
* CCOc1cc(CN2CCC3(CC2)CN(c2ccc(C(C)(C)C(=O)O)cc2)C(=O)O3)cc(OCC)c1-c1ccc(F)cc1 [Example 3-6, TFA salt] | Not fulfilled
* CCCn1nc(Cc2cc(F)c(F)cc2F)c(CN2CCC3(CC2)CN(c2ccc(C(=O)O)cc2)C(=O)O3)c1Cl [Example 1-46, TFA salt] | Not fulfilled
* CCOc1cc(CN2CCC3(CC2)CN(c2ccc(C(=O)O)cc2)C(=O)O3)c(-c2ccc(F)c(F)c2F)cc1C [Example 4-7, TFA salt] | Fulfilled
* CCOc1nn(C(C)(C)C)cc1CN1CCC2(CC1)CN(c1ccc(C(=O)O)cc1)C(=O)O2 [Example 1-36, TFA salt] | Not fulfilled
* O=C(O)c1ccc(N2CC3(CCN(Cc4c(Cc5cc(F)c(F)cc5F)nn(-c5ccccc5)c4Cl)CC3)OC2=O)cc1 [Example 1-47, TFA salt] | Not fulfilled
* O=C(O)c1ccc(N2CC3(CCN(Cc4cnc(-c5ccccc5)nc4-c4ccc(F)cc4)CC3)OC2=O)cc1 [Example 4-15, TFA salt] | Not fulfilled
* CC(C)(C)Cn1cc(CN2CCC3(CC2)CN(c2ccc(C(=O)O)cc2)C(=O)O3)c(-c2ccc(F)c(Cl)c2)n1 [Example 1-38, TFA salt] | Fulfilled
* O=C(O)c1ccc(N2CC3(CCN(Cc4cn(-c5cccc6c5OCCO6)nc4-c4ccc(F)c(F)c4F)CC3)OC2=O)cc1 [Example 1-21, TFA salt] | Fulfilled

Could you please tell me whether IC50 recorded for CC(C)(C)n1cc(CN2CCC3(CC2)CN(c2ccc(C(=O)O)c(F)c2)C(=O)O3)c(-c2ccc(F)c(F)c2F)n1 [Example 1-42, TFA salt] is less than 9 nM? Fulfilled

Determine whether this compound shows IC50 lower than 9 nM (ties excluded): O=C(O)c1ccc(N2CC3(CCN(Cc4nn(Cc5ccc(Cl)cc5)cc4-c4ccc(F)c(F)c4F)CC3)OC2=O)cc1 [Example 2-3, TFA salt] Not fulfilled

Find out if reported IC50 for O=C(O)c1ccc(N2CC3(CCN(Cc4cn(-c5ccccc5)nc4-c4ccc(OC(F)(F)F)cc4)CC3)OC2=O)cc1 [Example 1-27, TFA salt] is less than 9 nM Not fulfilled

Report whether reported IC50 is lower than 9 nM (strictly) for CCOc1cc(CN2CCC3(CC2)CN(c2ccc(C(=O)O)cc2C)C(=O)O3)cc(OCC)c1-c1ccc(F)cc1 [Example 3-16, TFA salt] Fulfilled

Here's an entry: CCCCn1cc(CN2CCC3(CC2)CN(c2ccc(C(=O)O)cc2)C(=O)O3)c2ccc(OC)cc21 [Example 6-21, TFA salt] . Is its IC50 below 9 nM? Not fulfilled

For this compound, is IC50 lower than 9 nM? CCOc1cc(CN2CCC3(CC2)CN(c2ccccc2C(=O)O)C(=O)O3)cc(OCC)c1-c1ccc(F)cc1 [Example 3-3, TFA salt] Not fulfilled

Lab log: compare recorded IC50 with 9 nM; is it strictly lower for CCOc1cc(CN2CCC3(CC2)CN(c2ccc(C(=O)O)cc2C)C(=O)O3)c(-c2ccc(F)c(F)c2F)cc1C [Example 4-8, TFA salt] ? Fulfilled

Does this compound meet the criterion IC50 < 9 nM? O=C(O)c1ccc(N2CC3(CCN(Cc4nc5ccccn5c4-c4cc(F)c(F)cc4F)CC3)OC2=O)cc1 [Example 6-36, TFA salt] Not fulfilled

IC50 strictly < 9 nM for this compound? COc1ccc(-c2nn(C(C)(C)C)cc2CN2CCCC3(CC2)CN(c2ccc(C(=O)O)cc2)C(=O)O3)cc1 (centres unmarked) [Example 2-14, TFA salt] Not fulfilled

Does the reported IC50 of COc1ccc(-c2nn(C3CC3)cc2CN2CCC3(CC2)CN(c2ccc(C(=O)O)cc2)C(=O)O3)cc1 [Example 1-4, TFA salt] stay below 9 nM? Fulfilled

Given CCOc1cc(CN2CCC3(CC2)CN(c2ccc(C(=O)O)c(C(F)(F)F)c2)C(=O)O3)cc(OCC)c1-c1ccc(F)cc1 [Example 3-15, TFA salt] , is recorded IC50 strictly lower than 9 nM? Fulfilled

Does CCOc1cc(CN2CCC3(CC2)CN(c2ccc(C(=O)O)cc2)C(=O)O3)cc2c(OC)cc(Cl)cc12 [Example 5-5, TFA salt] have IC50 strictly under 9 nM? Fulfilled
